assay: protease stability score; higher = more stable; yeast display proteolysis, trypsin and chymotrypsin;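 also: log10 excess protease needed over predicted unfolded state with 0 meaning unfolded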
So basically every entry gets a class from its protease stability score, ranges being 1 (below 0.02), 2 (0.02 to below 0.8), 3 (0.8 or more)

Solved entries (count: 4):
residues=DEEEVKRQLDQVAKALLHGDEKQAKDLADPNVSANYGDKKLHGRENFSKWVKKFRHQIDHLELKDIRVNGDRLVIEVQANVNGQDVDVVFNLKLHNGKVKHMSVEYRDEQAKRELKK discrete_label=2
residues=DEEHARTFMEEWQKAVQKGDHKRAQEIYKPNVEWVAGDKQTQGTDVVREMLEKAQKMGVEFQVRRAEVEGNKVRFQYDVRHGNETVTFHVEVTVQGGKIDRVQVKFDEKAQKVQKEG discrete_label=3
residues=DEERVKQLAEKVFKYVIKGDKDEVRKQGKPDVKYKYIDKEYEGPDALEKAVKLVKRLGMKAETKELKVKGNTVRAKFEYRKGDQTMKTEVEVHYEGDVVKEAKVKISDEVKKFVHQG discrete_label=2
residues=DEEQKKHVKEMIEAERTGNEEQARKLVDEDVRANYGDHEVHGRETLRKHVRDVKREWSVQIDDVKLRVHNGRVQMHFDFVRDENGRPEKMTATATAEAHNGKIKEINRQDHK discrete_label=1

Bin this entry: DETQLRIASEFEEAVRRGNEEQAKRNVDPNARVRVGDTEVHGNEQIAKKIRQEVEHARVSVKSVTNHTDENRVVIDVEFEATHNGEPTSKKYQVNIEIRNGKIKEINYHDSK
1

Band assignment needed for DDHETAKQIMETWKQIVEDGDEHQAQRMADPNVHANIGDHTVHGKEEFKKMLRTWRDRVDRIEVTFRHIEVTGNKLIVVVDVRLDVNGKEIHVHMVLNAQKQGDEAKVETVVVE please.
3

Field: class (protease stability score) — entry: DEQENKEIMRRVKEAFEHNDPDMFKKLFDEDATVEVGDKSFQGRDKIKEAMTQFKNQADRVRVDSVNVRGNKVDATVTADFNGKTASFKLEITWHNGKIKHMRINPEDNKKLQG
3

For the record DEEALHILERFLKLMETNDEETLRDLVDPNAENRVGDKTVHGREDFQREVHTMKKQWRVRFRHIDNQSRPNEAVVRANVNNDINGRPITEDVVFRADFKNGKLKSLHIQMPEEYKKELDK , report the class its protease stability score corresponds to.
2

Form: Item = DDKQAKELVKLMHTGDWETLINNMDPNARVVIGNKTYHGRHDAQKLLELWQKRVDHQDIHDVKARGDQLQVNMVFVINGVKFELVITVKFHNGRIESVQYDVTDRDQERKLEDLMS ; Class = ?
3

----------
Below: a set of entries, each annotated with reported protease stability score.
assay: protease stability score; higher = more stable; yeast display proteolysis, trypsin and chymotrypsin;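 also: log10 excess protease needed over predicted unfolded state with 0 meaning unfolded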
Answer field: number only, no words.

Worked set:
residues=EERANDAARRFLEAIDRNNPDEAVKNFDPNARFRYGDKTVTGRTEVQELLEHLLKQMRITIQSVRVDARGDKVTVHLTVVVDVNGQPERHEMTVIANIHNGRIKEMEVRVDPDEQRERKR observed_measurement=0.575
residues=DERALDVVRKYQEALNSNDPEHLVELIDPNAKLQVGDKTIHGREQLHHEAQKRKDEMRLNVEVHDLRDRGSTVQIHARRSYSHNGRPRSERYVLHATIRGDKIDKMHFQTDS observed_measurement=-0.243
residues=DEERKKRVEEALRQEQQGNEEDYSELMDENVKITIGDKTIRGSKEAVRHFKEKMTQMRIELRDYRIQVHGNKVSVDLKYVNDHDGQPRHQKATATMDMTNGRVQSREVDNKP observed_measurement=0.186

Then there is this sequence:
Entry DDKDLKDVAEKVMHAVQNGDPHEARKMFDKDARIIVGDTEVHGRSNIMHLMTEFRKRVDHAEIKDLTVNGEDVRIDMVLDINGKKHRRTWEVRVSNGRARHAHLDPKDLERQSK : reported protease stability score = ?
0.481
